Test: HCV replicon assay (luciferase reporter, ET cell line)
Assay type: cell-based
Settings: Hepatitis C virus, HCV replicon luciferase activity in ET cells
property.name: inhibition at 10 µM (%)

| compound | property.name | readout.number |
| --- | --- | --- |
| O=C(c1nc2c(C(F)(F)F)cc(-c3ccoc3)cn2c1Cl)N1CC=C(c2cccs2)CC1 [Compound 613] | inhibition at 10 µM | 99.4 |
| O=C(c1nc2c(C(F)(F)F)cc(-c3ccoc3)cn2c1Cl)N1CC=C(c2cccnc2F)CC1 [Compound 581] | inhibition at 10 µM | 98.2 |
| O=C(NCc1cn2cc(-c3ccoc3)cc(C(F)(F)F)c2n1)NCc1ccccc1F [Compound 399] | inhibition at 10 µM | 37.7 |
| O=C(c1nc2c(C(F)(F)F)cc(-c3ccccc3)nn2c1Br)N1CCC(c2ccc(F)cc2)C1 (centres unmarked) [Compound 252] | inhibition at 10 µM | 84.8 |
| Nc1nc(-c2cc(C(F)(F)F)c3nc(C(=O)N4CCC(c5cccc(F)c5)C4)c(Cl)n3c2)cs1 (centres unmarked) [Compound 643] | inhibition at 10 µM | 74.5 |
| COc1cccc(C2CCN(C(=O)c3nc4c(C(F)(F)F)cc(-c5ccoc5)cn4c3Cl)C2)c1 (centres unmarked) [Compound 451] | inhibition at 10 µM | 73.5 |
| O=C(c1nc2c(C(F)(F)F)cc(-c3ccoc3)cn2c1Cl)N1CC=C(c2ncccc2F)CC1 [Compound 571] | inhibition at 10 µM | 97.8 |
| O=C(NC1CCc2ccccc21)c1nc2c(C(F)(F)F)cc(-c3ccco3)cn2c1Cl (centres unmarked) [Compound 187] | inhibition at 10 µM | 34.2 |

----------
Measured inhibition at 10 µM values are reported for all entries that follow.
Test: HCV replicon assay (luciferase reporter, ET cell line)
Type: cell-based
Details: Hepatitis C virus, HCV replicon luciferase activity in ET cells

| molecule | inhibition at 10 µM |
| --- | --- |
| O=C(NCc1cccs1)c1nc2c(Br)cc(-c3ccccc3)cn2c1Cl [Compound 371] | 78.6% |
| O=C(Cc1cn2cc(-c3ccoc3)cc(C(F)(F)F)c2n1)N1CCC(c2cccc(F)c2)C1 (stereo not drawn) [Compound 652] | 82.1% |
| O=C(c1nc2c(C(F)(F)F)cc(-c3ccco3)cn2c1Cl)N1CCC(c2ccccc2)CC1 [Compound 218] | 63.5% |
| O=C(NCc1cccs1)c1nc2c(C(F)(F)F)cc(-c3ccc(F)cc3)cn2c1Cl [Compound 178] | 75.2% |
| CN(C)CCN(Cc1cccs1)C(=O)c1nc2c(C(F)(F)F)cc(-c3ccco3)cn2c1Cl [Compound 319] | 58.8% |
| CC(=O)c1cc(C(F)(F)F)c2nc(C(=O)N3CCC(c4cccc(F)c4)C3)c(Cl)n2c1 (stereo not drawn) [Compound 642] | 73.8% |
| COc1cccc(CNC(=O)c2nc3c(C(F)(F)F)cc(-c4ccco4)cn3c2Cl)c1 [Compound 191] | 2.3% |
| Cn1cc(-c2cc(C(F)(F)F)c3nc(C(=O)N4CCC(c5cccc(F)c5)C4)c(Cl)n3c2)cn1 (stereo not drawn) [Compound 624] | 63.9% |
| O=C(c1nc2c(C(F)(F)F)cc(-c3ccoc3)cn2c1Cl)N1CC=C(c2c(F)cccc2F)CC1 [Compound 564] | 99% |

----------
Assay: HCV replicon assay (luciferase reporter, ET cell line)
Type: cell-based
Conditions: Hepatitis C virus, HCV replicon luciferase activity in ET cells
Protocol: A cell line, ET (Huh-lucubineo-ET) is used for screening of compounds for inhibiting HCV RNA dependent RNA polymerase. […] Luciferase activity is measured 48-72 hours later by adding a lysis buffer and the substrate (Catalog number Glo-lysis buffer E2661 and Bright-Glo luciferase system E2620 Promega, Madison, Wis.). […] Under the same condition, cytotoxicity of the compounds are determined using cell proliferation reagent, WST-1 (Roche, Germany). […]
Examples of molecules with documented inhibition at 10 µM follow.

| molecule | measurement.units | inhibition at 10 µM |
| --- | --- | --- |
| N#Cc1cc(F)ccc1C1=CCN(C(=O)c2nc3c(C(F)(F)F)cc(-c4ccoc4)cn3c2Cl)CC1 [Compound 570] | % | 89.1 |
| O=C(c1nc2c(C(F)(F)F)cc(-c3ccoc3)cn2c1Cl)N1CCC(c2cccc(Cl)c2)C1 (stereo not shown) [Compound 460] | % | 88 |
| O=C(c1nc2c(C(F)(F)F)cc(-c3ccoc3)cn2c1Cl)N1CC=C(c2ccccc2CO)CC1 [Compound 561] | % | 89.1 |
| O=C(c1nc2c(C(F)(F)F)cc(-c3cn[nH]c3)cn2c1Br)N1CCC(c2ccc(F)cc2)C1 (stereo not shown) [Compound 256] | % | 92 |
| O=C(NCc1cccs1)c1nc2c(C(F)(F)F)cc(-c3cccnc3)cn2c1Cl [Compound 208] | % | 88.5 |
| O=C(Nc1ccccc1)Nc1nc2c(C(F)(F)F)cc(-c3ccco3)cn2c1Cl [Compound 211] | % | 51.8 |
| O=C(NCc1cccc(N2CCOCC2)c1)c1nc2c(C(F)(F)F)cc(-c3ccco3)cn2c1Cl [Compound 213] | % | 2.7 |
| O=C(c1nc2c(C(F)(F)F)cc(-c3ccco3)cn2c1Cl)N1CC(Cc2ccccc2)C1 [Compound 328] | % | 72.5 |
| O=C(NCc1cccs1)c1nc2c(C(F)(F)F)cc(-c3ccccc3)nn2c1Br [Compound 250] | % | 92 |
| N#Cc1cccc(F)c1C1=CCN(C(=O)c2nc3c(C(F)(F)F)cc(-c4ccoc4)cn3c2Cl)CC1 [Compound 565] | % | 98 |

----------
Assay: HCV replicon assay (luciferase reporter, ET cell line)
Assay type: cell-based
Conditions: Hepatitis C virus, HCV replicon luciferase activity in ET cells
Description: A cell line, ET (Huh-lucubineo-ET) is used for screening of compounds for inhibiting HCV RNA dependent RNA polymerase. […] Luciferase activity is measured 48-72 hours later by adding a lysis buffer and the substrate (Catalog number Glo-lysis buffer E2661 and Bright-Glo luciferase system E2620 Promega, Madison, Wis.). […] Under the same condition, cytotoxicity of the compounds are determined using cell proliferation reagent, WST-1 (Roche, Germany). […]
Property: inhibition at 10 µM; scope: individual compounds
property.name: inhibition at 10 µM (%)

| compound | readout.number |
| --- | --- |
| C/C=C\c1c(C(=O)NCc2cccs2)nc2c(C(F)(F)F)cc(-c3cccc(F)c3)cn12 | 76.9 |
| O=C(NCc1cccc(OC(F)(F)F)c1)c1nc2c(C(F)(F)F)cc(-c3ccco3)cn2c1Cl | 47.5 |
| O=C(c1nc2c(C(F)(F)F)cc(-c3ccoc3)cn2c1Cl)N1CCCC1c1ccccn1 (stereo not shown) | 53.3 |
| CC(NC(=O)c1nc2c(C(F)(F)F)cc(-c3ccco3)cn2c1Cl)c1cccs1 (stereo not shown) | 44.2 |
| O=C(c1cn2cc(-c3ccccc3)cc(C(F)(F)F)c2n1)N1CCC(c2cccc(F)c2)C1 (stereo not shown) | 71.9 |
| O=C(c1nc2c(C(F)(F)F)cc(-c3ccoc3)cn2c1Cl)N1CCC(c2ncon2)C1 (stereo not shown) | 96.5 |
| Cn1cc(-c2cc(C(F)(F)F)c3nc(C(=O)NCc4cccs4)c(Cl)n3c2)cn1 | 83.9 |
| O=C(c1nc2c(C(F)(F)F)cc(-c3ccco3)cn2c1Cl)N1CCCC1c1ccccc1 (stereo not shown) | 78.7 |
| O=C(NCc1cccs1)c1nn2c(I)cc(-c3ccccc3)cc2c1Br | 66.6 |
| O=C(Cc1c(C(=O)N2CCC(c3ccc(F)cc3)C2)nc2c(C(F)(F)F)cc(-c3ccoc3)cn12)NC1CC1 (stereo not shown) | 93 |
| O=C(c1nc2c(C(F)(F)F)cc(-c3ccoc3)cn2c1Cl)N1CC=C(c2cnoc2)CC1 | 91.2 |
| COC(=O)[C@@H]1CN(C(=O)c2nc3c(C(F)(F)F)cc(-c4ccoc4)cn3c2Cl)C[C@H]1c1ccccc1 (stereo in doubt) | 73.6 |
| O=C(c1nc2c(C(F)(F)F)cc(-c3ccoc3)cn2c1Cl)N1CCN(c2cccnc2)CC1 | 91.2 |
| O=C(NCc1cccs1)c1nc2c(C(F)(F)F)cc(-c3cnn(Cc4ccccc4)c3)cn2c1Cl | 71.8 |
| N#CC1CCN(C(=O)c2nc3c(C(F)(F)F)cc(-c4ccoc4)cn3c2Cl)C1 (stereo not shown) | 58 |
| O=C(N[C@H]1C[C@@H]1c1ccccc1)c1nc2c(C(F)(F)F)cc(-c3ccco3)cn2c1Cl (stereo in doubt) | 80.5 |
| O=C(NCCc1ccccc1F)c1nc2c(C(F)(F)F)cc(-c3ccoc3)cn2c1Cl | 90 |
| O=C(c1nc2c(C(F)(F)F)cc(-c3ccccc3)cn2c1Br)N1CCC(c2cccc(F)c2)C1 (stereo not shown) | 88.1 |
| O=C(c1nc2c(C(F)(F)F)cc(-c3ccoc3)cn2c1Cl)N1CC(NS(=O)(=O)c2ccc(F)cc2)C1 | 94.3 |
| O=C(c1nc2c(C(F)(F)F)cc(-c3ccco3)cn2c1Cl)N1CCCC1c1ccc(F)cc1 (stereo not shown) | 97.6 |
| O=C(c1nc2c(C(F)(F)F)cc(-c3cn[nH]c3)cn2c1Cl)N1CCC(c2ccccc2F)C1 (stereo not shown) | 92.2 |
| O=C(c1nc2c(C(F)(F)F)cc(-c3ccoc3)cn2c1Cl)N1C2C=C(c3cscn3)CC1CC2 (stereo not shown) | 86.4 |
| Cn1nccc1C1=CCN(C(=O)c2nc3c(C(F)(F)F)cc(-c4ccoc4)cn3c2Cl)CC1 | 86 |
| O=C(NCc1cccs1)c1nc2c(C(F)(F)F)cc(C#Cc3ccccc3)cn2c1Cl | 41.5 |
| O=C(c1nc2c(C(F)(F)F)cc(-c3cn[nH]c3)cn2c1Br)N1CCC(c2nccs2)CC1 | 92.4 |

Value source: patent US20120121540A1
